The following compounds were reported with Ki values on Adenosine receptor A2a (Rattus norvegicus, UniProt P30543) in different studies.
Sequence (P30543 whole entry): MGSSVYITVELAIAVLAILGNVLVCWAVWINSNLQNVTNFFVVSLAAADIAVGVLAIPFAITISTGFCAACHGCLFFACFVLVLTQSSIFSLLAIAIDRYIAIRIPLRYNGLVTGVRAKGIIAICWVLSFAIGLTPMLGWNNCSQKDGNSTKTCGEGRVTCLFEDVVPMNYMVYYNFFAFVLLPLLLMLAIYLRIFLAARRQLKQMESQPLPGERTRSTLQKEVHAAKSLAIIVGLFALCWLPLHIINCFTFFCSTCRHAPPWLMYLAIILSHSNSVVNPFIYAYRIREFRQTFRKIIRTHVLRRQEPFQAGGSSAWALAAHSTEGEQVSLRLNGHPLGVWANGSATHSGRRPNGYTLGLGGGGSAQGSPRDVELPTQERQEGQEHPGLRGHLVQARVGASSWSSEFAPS
just bin them by Ki: one = under 200 nM, two = from 200 nM up to 2000 nM, three = 2000 nM and over

- Compound: "CSC[C@H]1O[C@@H](n2cnc3c(NC4CCCC4)nc(F)nc32)[C@H](O)[C@@H]1O"
  Label: "two"
- Compound: "O=c1c(Cl)c(-c2ccccc2)oc2ccccc12"
  Label: "three"
- Compound: "CSC[C@H]1O[C@@H](n2cnc3c(N)nc(Cl)nc32)[C@H](O)[C@@H]1O"
  Label: "two"
- Compound: "CCCCCC[C@H]([C@H](C)O)n1cnc2c(N)ncnc21 (relative stereo)"
  Label: "three"
- Compound: "O=c1c(Cl)c(-c2ccccc2)oc2ccc(Cl)cc12"
  Label: "three"
- Compound: "Nc1ncnc2c1nc(Br)n2C1OC(CO)C(O)C1O (stereo not drawn)"
  Label: "three"
- Compound: "CN1CCN(C2=c3ccccc3=Nc3ccc(Cl)cc3N2)CC1"
  Label: "three"
- Compound: "O=C1NC(=O)c2cc(SCc3ccccc3)ccc21"
  Label: "two"
- Compound: "O=C1NC(=O)c2cc(SCCc3ccccc3)ccc21"
  Label: "three"
- Compound: "Cn1c(=O)[nH]c2c(ncn2C)c1=O"
  Label: "three"
- Compound: "Nc1ncnc2c1ncn2[C@@H]1O[C@H](Cl)[C@@H](O)[C@H]1O"
  Label: "one"
- Compound: "CC(=O)OCC1O[C@@H](n2cnc3c(N)ncnc32)[C@H](O)[C@@H]1O (stereo partly drawn)"
  Label: "three"
- Compound: "Cn1c(=O)c2c(nc(COc3ccccc3)n2C)n(C)c1=O"
  Label: "one"
- Compound: "CCNC(=O)[C@@H]1OC(n2cnc3c(N)nc(C#CC(O)c4ccccc4)nc32)[C@H](O)[C@@H]1O (stereo partly drawn)"
  Label: "one"
- Compound: "Cn1c(=O)c2c(nc(/C=C/c3ccc(Cl)cc3)n2C)n(C)c1=O"
  Label: "one"
- Compound: "CO[C@@H]1[C@H](O)[C@@H](CO)O[C@H]1n1cnc2c(N)ncnc21"
  Label: "three"
- Compound: "Cn1c(=O)c2[nH]c(-c3ccc(S(=O)(=O)O)cc3)nc2n(C)c1=O"
  Label: "three"
- Compound: "CCN1CCCC1CNC(=O)c1cc(S(=O)(=O)CC)c(N)cc1OC (stereo not drawn)"
  Label: "three"
- Compound: "CCn1c(=O)c2c(nc(/C=C/c3cccc(Br)c3)n2CC)n(CC)c1=O"
  Label: "one"
- Compound: "Cn1c(=O)c2c(nc(/C=C/c3cccc(Br)c3)n2C)n(C)c1=O"
  Label: "one"
- Compound: "COc1ccc(-c2nc(N)c3ncn([C@@H]4O[C@H](CO)[C@@H](O)[C@H]4O)c3n2)cc1"
  Label: "two"

====

The following compounds were reported with pKi values on Adenosine receptor A2a (Rattus norvegicus) in different studies.
pKi: −log10 of the molar value.
Endpoint: pKi

- Compound: "CCn1c(/C=C/c2ccc(Cl)c(Cl)c2)nc2c1c(=O)n(C)c(=O)n2C"
  Test Target: "Adenosine receptor A2a (Rattus norvegicus)"
  Qual: "="
  Value Observed: 7.48
- Compound: "CCn1c(=O)c2c(nc(/C=C/c3ccc(Br)cc3)n2CC)n(CC)c1=O"
  Test Target: "Adenosine receptor A2a (Rattus norvegicus)"
  Qual: "="
  Value Observed: 7.08
- Compound: "COc1ccc(-c2cc(=O)c3ccc(O)cc3o2)cc1OC"
  Test Target: "Adenosine receptor A2a (Rattus norvegicus)"
  Qual: "="
  Value Observed: 4.46
- Compound: "Nc1nc(NNCC(=O)[C@@H](O)[C@@H](O)CO)nc2c1ncn2[C@@H]1O[C@H](CO)[C@@H](O)[C@H]1O"
  Test Target: "Adenosine receptor A2a (Rattus norvegicus)"
  Qual: "<"
  Value Observed: 6.00
- Compound: "CCn1c(/C=C/c2ccc(Cl)cc2)nc2c1c(=O)n(C)c(=O)n2C"
  Test Target: "Adenosine receptor A2a (Rattus norvegicus)"
  Qual: "="
  Value Observed: 7.02
- Compound: "CCCCC#Cc1nc(N)c2ncn([C@@H]3O[C@H](C(=O)NCC)[C@H](O)C3O)c2n1 (stereo not given in full)"
  Test Target: "Adenosine receptor A2a (Rattus norvegicus)"
  Qual: "="
  Value Observed: 8.66
- Compound: "Cn1cnc2[nH]c(=O)[nH]c(=O)c21"
  Test Target: "Adenosine receptor A2a (Rattus norvegicus)"
  Qual: "<"
  Value Observed: 5.00
- Compound: "N=C(N)NC(=O)c1nc(Cl)c(N2CCCCCC2)nc1N"
  Test Target: "Adenosine receptor A2a (Rattus norvegicus)"
  Qual: "="
  Value Observed: 5.34
- Compound: "O=C(CCCN1CCC(O)(c2ccc(Cl)cc2)CC1)c1ccc(F)cc1"
  Test Target: "Adenosine receptor A2a (Rattus norvegicus)"
  Qual: "<"
  Value Observed: 5.00
- Compound: "CN(NC(CO)C(=O)[C@@H](O)[C@@H](O)CO)c1nc(N)c2ncn([C@@H]3O[C@H](CO)[C@@H](O)[C@H]3O)c2n1 (stereo not given in full)"
  Test Target: "Adenosine receptor A2a (Rattus norvegicus)"
  Qual: "<"
  Value Observed: 6.00

====

The following compounds were reported with pKi values on Adenosine receptor A2a (Rattus norvegicus) in different studies.
pKi: −log10 of the molar value.

- Input Smiles: "CCn1c(=O)c2c(nc(/C=C/c3cccc(Cl)c3)n2C)n(CC)c1=O"
  Qual: "="
  pKi: 7.61
- Input Smiles: "CCOc1c2ccoc2cc2oc(/C=C/C=C/c3ccccc3)cc(=O)c12"
  Qual: "="
  pKi: 3.78
- Input Smiles: "CSC[C@H]1O[C@@H](n2cnc3c(N)ncnc32)[C@H](O)[C@@H]1O"
  Qual: "="
  pKi: 5.96
- Input Smiles: "Nc1ccn([C@@H]2O[C@H](COP(=O)(O)OP(=O)(O)O)[C@@H](O)[C@H]2O)c(=O)n1"
  Qual: "<"
  pKi: 5.00
- Input Smiles: "OC[C@H]1O[C@@H](n2cnc3c(NCc4ccccc4)ncnc32)[C@H](O)[C@@H]1O"
  Qual: "="
  pKi: 6.55
- Input Smiles: "O=c1[nH]c2c(ncn2[C@@H]2O[C@H](CO)[C@@H](O)[C@H]2O)c2nccn12"
  Qual: "<"
  pKi: 5.00
- Input Smiles: "Cn1c(=O)c2c(nc(/C=C/c3cccc(C(F)(F)F)c3)n2C)n(C)c1=O"
  Qual: "="
  pKi: 6.90
- Input Smiles: "CN(NCC(=O)[C@@H](O)[C@@H](O)CO)c1nc(N)c2ncn([C@@H]3O[C@H](CO)[C@@H](O)[C@H]3O)c2n1"
  Qual: "<"
  pKi: 6.00

====

pKi: −log10 of the molar value.
The following molecules were reported with pKi values on Adenosine receptor A2a (Rattus norvegicus) in different studies.

- Molecule: "CCOC(=O)C1C(C)=NC(c2ccccc2)=C(C(=O)OCc2ccccc2)C1C#Cc1ccccc1 (configuration not stated)"
  pKi: "< 7.00"
- Molecule: "CCn1c(=O)c2c(nc(/C=C/c3ccc(Cl)cc3)n2CC)n(CC)c1=O"
  pKi: "< 6.00"
- Molecule: "OC[C@H]1O[C@@H](n2cnc3c(NC4CCCC4)ncnc32)[C@H](O)[C@@H]1O"
  pKi: 5.70
- Molecule: "CN(NCC(=O)[C@@H](O)[C@@H](O)[C@H](O)CO)c1nc(N)c2ncn([C@@H]3O[C@H](CO)[C@@H](O)[C@H]3O)c2n1"
  pKi: "< 6.00"
- Molecule: "Nc1nc(NNC(CO)C(=O)[C@@H](O)[C@@H](O)CO)nc2c1ncn2[C@@H]1O[C@H](CO)[C@@H](O)[C@H]1O (some centres not stated)"
  pKi: "< 6.00"
- Molecule: "CN(NCC(=O)[C@H](O)[C@@H](O)[C@@H](O)CO)c1nc(N)c2ncn([C@@H]3O[C@H](CO)[C@@H](O)[C@H]3O)c2n1"
  pKi: "< 6.00"
- Molecule: "CCn1c(=O)c2c(nc(CCCc3ccccc3)n2CC)n(CC)c1=O"
  pKi: "< 6.00"
